- assay: Organ distribution of injected radioactivity in rats after I.V. injection
- Type: in vivo, Ratten (weiblich, Wistar, spf)
- experimental.conditions: rat, intestine, iv, Darm, 6h, Ratte, read-out: Prozent der injizierten Aktivität pro Gramm des entsprechenden Organs
measure: tissue uptake at 6 h
Please state the value followed by its unit.

Query string: Suppose we examine the compound CCOC(=O)c1ncn2c1CN(C)C(=O)c1c([123I])cccc1-2 ; what tissue uptake at 6 h value has been reported?
Result string: 1.55 %ID/g

###

- assay: Organ distribution of injected radioactivity in rats after I.V. injection
- Assay type: in vivo, Ratten (weiblich, Wistar, spf)
- experimental.conditions: rat, lung, iv, Lunge, 40′, Ratte, read-out: Prozent der injizierten Aktivität pro Gramm des entsprechenden Organs
measure: tissue uptake at 40 min (%ID/g)
Reply with just the number (in %ID/g).

Query string: Suppose we examine the compound CCOC(=O)c1ncn2c1CN(C)C(=O)c1c([123I])cccc1-2 ; what tissue uptake at 40 min value has been reported?
Result string: 0.15

###

- assay: Organ distribution of injected radioactivity in rats after I.V. injection
- Type: in vivo, Ratten (weiblich, Wistar, spf)
- experimental.conditions: rat, lung, iv, Lunge, 20′, Ratte, read-out: Prozent der injizierten Aktivität pro Gramm des entsprechenden Organs
measure: tissue uptake at 20 min (%ID/g)
Reply with just the number (in %ID/g).

Query string: Suppose we examine the molecule CCOC(=O)c1ncn2c1CN(C)C(=O)c1c([123I])cccc1-2 ; what tissue uptake at 20 min value has been reported?
Result string: 0.44

###

- assay: Organ distribution of injected radioactivity in rats after I.V. injection
- Assay type: in vivo, Ratten (weiblich, Wistar, spf)
- experimental.conditions: rat, muscle, iv, Muskel, 40′, Ratte, read-out: Prozent der injizierten Aktivität pro Gramm des entsprechenden Organs
measure: tissue uptake at 40 min

Query string: Suppose we examine the compound CCOC(=O)c1ncn2c1CN(C)C(=O)c1c([123I])cccc1-2 ; what tissue uptake at 40 min value has been reported?
Result string: 0.09 %ID/g

###

- assay: Organ distribution of injected radioactivity in rats after I.V. injection
- Type: in vivo, Ratten (weiblich, Wistar, spf)
- experimental.conditions: rat, ovary, iv, Ovar, 10′, Ratte, read-out: Prozent der injizierten Aktivität pro Gramm des entsprechenden Organs
measure: tissue uptake at 10 min
Please state the value followed by its unit.

Query string: Suppose we examine the compound CCOC(=O)c1ncn2c1CN(C)C(=O)c1c([123I])cccc1-2 ; what tissue uptake at 10 min value has been reported?
Result string: 0.73 %ID/g

###

- assay: Organ distribution of injected radioactivity in rats after I.V. injection
- Format: in vivo, Ratten (weiblich, Wistar, spf)
- experimental.conditions: rat, kidney, iv, Nieren, 10′, Ratte, read-out: Prozent der injizierten Aktivität pro Gramm des entsprechenden Organs
measure: tissue uptake at 10 min (%ID/g)
Reply with just the number (in %ID/g).

Query string: Suppose we examine the compound CCOC(=O)c1ncn2c1CN(C)C(=O)c1c([123I])cccc1-2 ; what tissue uptake at 10 min value has been reported?
Result string: 7.06

###

- assay: Organ distribution of injected radioactivity in rats after I.V. injection
- Type: in vivo, Ratten (weiblich, Wistar, spf)
- experimental.conditions: rat, brain, iv, Hirn, 10′, Ratte, read-out: Prozent der injizierten Aktivität pro Gramm des entsprechenden Organs
measure: tissue uptake at 10 min (%ID/g)
Reply with just the number (in %ID/g).

Query string: Suppose we examine the compound CCOC(=O)c1ncn2c1CN(C)C(=O)c1c([123I])cccc1-2 ; what tissue uptake at 10 min value has been reported?
Result string: 3.22

###

- assay: Organ distribution of injected radioactivity in rats after I.V. injection
- Format: in vivo, Ratten (weiblich, Wistar, spf)
- experimental.conditions: rat, brain, iv, Hirn, 15h, Ratte, read-out: Prozent der injizierten Aktivität pro Gramm des entsprechenden Organs
measure: tissue uptake at 15 h (%ID/g)
Reply with just the number (in %ID/g).

Query string: Suppose we examine the compound CCOC(=O)c1ncn2c1CN(C)C(=O)c1c([123I])cccc1-2 ; what tissue uptake at 15 h value has been reported?
Result string: 0.001

###

- assay: Organ distribution of injected radioactivity in rats after I.V. injection
- Assay type: in vivo, Ratten (weiblich, Wistar, spf)
- experimental.conditions: rat, stomach, iv, Magen, 20′, Ratte, read-out: Prozent der injizierten Aktivität pro Gramm des entsprechenden Organs
measure: tissue uptake at 20 min (%ID/g)
Reply with just the number (in %ID/g).

Query string: Suppose we examine the compound CCOC(=O)c1ncn2c1CN(C)C(=O)c1c([123I])cccc1-2 ; what tissue uptake at 20 min value has been reported?
Result string: 0.35

###

- assay: Organ distribution of injected radioactivity in rats after I.V. injection
- Type: in vivo, Ratten (weiblich, Wistar, spf)
- experimental.conditions: rat, kidney, iv, Nieren, 2′, Ratte, read-out: Prozent der injizierten Aktivität pro Gramm des entsprechenden Organs
measure: tissue uptake at 2 min
Please state the value followed by its unit.

Query string: Suppose we examine the compound CCOC(=O)c1ncn2c1CN(C)C(=O)c1c([123I])cccc1-2 ; what tissue uptake at 2 min value has been reported?
Result string: 2.68 %ID/g

###

- assay: Organ distribution of injected radioactivity in rats after I.V. injection
- Type: in vivo, Ratten (weiblich, Wistar, spf)
- experimental.conditions: rat, spleen, iv, Milz, 6h, Ratte, read-out: Prozent der injizierten Aktivität pro Gramm des entsprechenden Organs
measure: tissue uptake at 6 h

Query string: Suppose we examine the compound CCOC(=O)c1ncn2c1CN(C)C(=O)c1c([123I])cccc1-2 ; what tissue uptake at 6 h value has been reported?
Result string: 0.02 %ID/g

###

- assay: Organ distribution of injected radioactivity in rats after I.V. injection
- Assay type: in vivo, Ratten (weiblich, Wistar, spf)
- experimental.conditions: rat, heart, iv, Herz, 60′, Ratte, read-out: Prozent der injizierten Aktivität pro Gramm des entsprechenden Organs
measure: tissue uptake at 1 h (%ID/g)
Reply with just the number (in %ID/g).

Query string: Suppose we examine the molecule CCOC(=O)c1ncn2c1CN(C)C(=O)c1c([123I])cccc1-2 ; what tissue uptake at 1 h value has been reported?
Result string: 0.06

###

- assay: Organ distribution of injected radioactivity in rats after I.V. injection
- Format: in vivo, Ratten (weiblich, Wistar, spf)
- experimental.conditions: rat, spleen, iv, Milz, 20′, Ratte, read-out: Prozent der injizierten Aktivität pro Gramm des entsprechenden Organs
measure: tissue uptake at 20 min (%ID/g)
Reply with just the number (in %ID/g).

Query string: Suppose we examine the compound CCOC(=O)c1ncn2c1CN(C)C(=O)c1c([123I])cccc1-2 ; what tissue uptake at 20 min value has been reported?
Result string: 0.29

###

- assay: Organ distribution of injected radioactivity in rats after I.V. injection
- Assay type: in vivo, Ratten (weiblich, Wistar, spf)
- experimental.conditions: rat, liver, iv, Leber, 15h, Ratte, read-out: Prozent der injizierten Aktivität pro Gramm des entsprechenden Organs
measure: tissue uptake at 15 h (%ID/g)
Reply with just the number (in %ID/g).

Query string: Suppose we examine the compound CCOC(=O)c1ncn2c1CN(C)C(=O)c1c([123I])cccc1-2 ; what tissue uptake at 15 h value has been reported?
Result string: 0.016

###

- assay: Organ distribution of injected radioactivity in rats after I.V. injection
- Format: in vivo, Ratten (weiblich, Wistar, spf)
- experimental.conditions: rat, iv, Femur, 40′, Ratte, read-out: Prozent der injizierten Aktivität pro Gramm des entsprechenden Organs
measure: tissue uptake at 40 min

Query string: Suppose we examine the molecule CCOC(=O)c1ncn2c1CN(C)C(=O)c1c([123I])cccc1-2 ; what tissue uptake at 40 min value has been reported?
Result string: 0.1 %ID/g

###

- assay: Organ distribution of injected radioactivity in rats after I.V. injection
- Format: in vivo, Ratten (weiblich, Wistar, spf)
- experimental.conditions: rat, blood, iv, Blut, 10′, Ratte, read-out: Prozent der injizierten Aktivität pro Gramm des entsprechenden Organs
measure: tissue uptake at 10 min (%ID/g)
Reply with just the number (in %ID/g).

Query string: Suppose we examine the molecule CCOC(=O)c1ncn2c1CN(C)C(=O)c1c([123I])cccc1-2 ; what tissue uptake at 10 min value has been reported?
Result string: 0.87

###

- assay: Organ distribution of injected radioactivity in rats after I.V. injection
- Format: in vivo, Ratten (weiblich, Wistar, spf)
- experimental.conditions: rat, blood, iv, Blut, 60′, Ratte, read-out: Prozent der injizierten Aktivität pro Gramm des entsprechenden Organs
measure: tissue uptake at 1 h
Please state the value followed by its unit.

Query string: Suppose we examine the compound CCOC(=O)c1ncn2c1CN(C)C(=O)c1c([123I])cccc1-2 ; what tissue uptake at 1 h value has been reported?
Result string: 0.11 %ID/g

###

- assay: Organ distribution of injected radioactivity in rats after I.V. injection
- Format: in vivo, Ratten (weiblich, Wistar, spf)
- experimental.conditions: rat, kidney, iv, Nieren, 15h, Ratte, read-out: Prozent der injizierten Aktivität pro Gramm des entsprechenden Organs
- Protocol: Es werden je 3 Ratten (weiblich, Wistar, spf) zu sieben verschiedenen Zeitpunkten (2′, 10′, 20′, 40′, 1h, 6h, 15h) gemessen. Das Gewicht der Tiere lag zwischen 113 und 144 g. Die Fütterung erfolgte ad libitum. Die I.V. injizierten Dosen variierten von 184 bis 355 µCi in jeweils 0,2 ml.
measure: tissue uptake at 15 h (%ID/g)
Reply with just the number (in %ID/g).

Query string: Suppose we examine the molecule CCOC(=O)c1ncn2c1CN(C)C(=O)c1c([123I])cccc1-2 ; what tissue uptake at 15 h value has been reported?
Result string: 0.01

Entry source: patent EP0353754A2
